These entries and their values trace back to PubChem BioAssay (NCI).

Test system: OVCAR-8 ovarian
Test: NCI-60 one-dose screen, 48 h (100 = growth as untreated, 0 = no growth, -100 = all killed)
Conditions: 10 µM unless noted
Compounds without any hit were thinned out: in the full panel of roughly 83,000, 20% have a hit.
Listed next: entries and their corresponding growth.
Experimental readout: growth (%)

{"columns": ["Mol smiles", "Experimental readout", "Value observed"],
 "data": [
  ["COc1cc(C(=O)/C=C/c2c(C)n([O-])c3ccc(Cl)cc3[n+]2=O)cc(OC)c1OC", "growth", 23],
  ["C1=C2CNCC3=Cc4ccc5ccccc5c4OC23Oc2c1ccc1ccccc21", "growth", 53.9],
  ["CC[C@H](C)[C@@H]1NC(=O)[C@H](Cc2ccc(O)cc2)N(C)C(=O)[C@H](Cc2ccccc2)NC(=O)CN(C)C(=O)[C@@H]2CCCN2C(=O)[C@@H](Cc2ccccc2)N(C)C(=O)[C@H](CC(C)C)NC1=O", "growth", 5.34],
  ["N#Cc1c(Nc2ccccc2)nn2cc(-c3nc4ccccc4s3)c(N)nc12", "growth", 70.7],
  ["Cc1ccc(S(=O)(=O)Nc2ccc(Cl)cc2)cc1", "growth", 102],
  ["O=C(Nc1ccc(Cl)cc1)Nc1ccc(Cl)c(Cl)c1", "growth", 21.2]
]}

###

Test system: HOP-62 NSCLC
Experiment: NCI-60 one-dose screen, 48 h (100 = growth as untreated, 0 = no growth, -100 = all killed)
Conditions: 10 µM unless noted
Experimental: Growth inhibition of the HOP-62 human Non-Small Cell Lung tumor cell line is measured as a screen for anti-cancer activity. Cells are grown in 96 well plates and exposed to the test compound for 48 hours. Compounds are tested at a single concentration, which is 10^-5 M for most compounds. The reported endpoint is percent growth (GI% or GIPRCNT), where numbers from 0 - 100% represent growth inhibition, and numbers from -100% - 0 represent cell death. […]
This is part of a sample that, as a whole, favours compounds with a hit. Of some 83,000 tested, about 20% had one in any assay.

{"columns": ["Compound", "Output unit", "growth"],
 "data": [
  ["CC[C@H](C)[C@@H]1NC(=O)[C@H](Cc2ccc(O)cc2)N(C)C(=O)[C@H](Cc2ccccc2)NC(=O)CN(C)C(=O)[C@@H]2CCCN2C(=O)[C@@H](Cc2ccccc2)N(C)C(=O)[C@H](CC(C)C)NC1=O", "%", 0.573],
  ["O=C(N/N=C/c1ccc(F)cc1)c1ccccc1Nc1cccc(C(F)(F)F)c1", "%", 109],
  ["COc1ccc(C(=O)/C=C/c2c(OC)cc(OC)cc2OC)c(OC)c1", "%", 40.4],
  ["COc1c(Cl)cc(Cl)c2ccc(C=C3C(=O)NC(=S)NC3=O)nc12", "%", 93.7],
  ["O=C(N=Nc1c(O)[nH]c2ccc(F)cc12)c1cc2ccccc2[nH]1", "%", 94.5],
  ["COc1cc2nnn3c4ncccc4c(N=O)c3c2cc1OC", "%", 106],
  ["c1ccc(CCSc2ncnc3nc[nH]c23)cc1", "%", 103],
  ["Clc1cc(Cl)cc(N2N=C(c3cccc(Nc4ccncc4)c3)CC2c2ccc3c(c2)OCO3)c1 (stereo not drawn)", "%", -31.2],
  ["COc1cc2nc(-c3ccc(C(F)(F)F)cc3)cc(OCCCN3CCC(O)CC3)c2cc1OC", "%", 45.3],
  ["C=C(C)[C@@H]1CC[C@]2(C=O)CC[C@]3(C)[C@H](CC[C@@H]4[C@@]5(C)CCCNC(C)(C)[C@@H]5CC[C@]43C)[C@@H]12", "%", 94.5],
  ["O=C(Nc1ccc(Cl)cc1)Nc1ccc(Cl)c(Cl)c1", "%", 40.8],
  ["C[C@H]1[C@H](C)CC[C@]2(CO)CC[C@]3(C)C(=CC[C@@H]4[C@@]5(C)Cc6c([nH]c7ccccc67)C(C)(C)[C@@H]5CC[C@]43C)[C@H]12", "%", 89],
  ["CN1CCN(Cc2ccc(NC(=O)c3cncc(C#Cc4cnccc4C(F)(F)F)c3)cc2C(F)(F)F)CC1", "%", 80.5],
  ["Cc1cc(NC(=O)c2cnc(N3CCN(CCOCCOCCOCCOCCC(=O)N[C@H](C(=O)N4C[C@H](O)C[C@H]4C(=O)N[C@@H](C)c4ccc(-c5scnc5C)cc4)C(C)(C)C)CC3)cn2)c2ncccc2c1", "%", 4.92],
  ["Cc1cc2nc(-c3ccccc3)c(-c3ccccc3)nc2cc1C", "%", 111],
  ["O=C(/C=C\\c1ccc(OCCCCCC[P+](c2ccccc2)(c2ccccc2)c2ccccc2)cc1)c1ccc2c(c1)OCCO2", "%", -21.8],
  ["C=C(C)[C@H]1CC/C(C)=C/CC[C@]2(C)O[C@H]2CC/C(COC(=O)[C@@H](OC(C)=O)[C@H](NC(=O)c2ccccc2)c2ccccc2)=C\\[C@@H]1O", "%", 97.6],
  ["COc1cccc2cc(-c3cc4ccccc4[nH]3)/c(=N/C(=S)Nc3ccc(C)cc3)oc12", "%", 22],
  ["CC(C)C1C2=C(NCCN1C(=O)Cc1ccccc1)C(C)(C)N(Cc1ccccc1)C2=O (stereo not drawn)", "%", 91.9],
  ["CC(=O)c1c(-c2ccc(OC(F)(F)F)cc2)nc2ccccn12", "%", 88.9],
  ["O=C(O)C(/C=C/c1ccco1)=N\\Nc1nc(-c2ccc(Cl)cc2)cs1", "%", 46.4],
  ["CC(C)CCSc1nc(NNC(N)=O)c(C#N)c(-c2ccccc2)n1", "%", 105],
  ["CN1CCN(CC#CCNC(=O)[C@]23CCC(C)(C)C[C@H]2C2=CC[C@@H]4[C@@]5(C)Cc6c([nH]c7ccccc67)C(C)(C)[C@@H]5CC[C@@]4(C)[C@]2(C)CC3)CC1", "%", 91.9],
  ["CC(=O)c1c(C)[nH]c(-c2nc3ccc(N4CCN(C)CC4)cc3[nH]2)c1-c1ccccc1", "%", 33.3],
  ["Nc1nnc(C(=O)c2cnc3n(c2=O)CCCCC3)s1", "%", 101],
  ["C=C1C(=O)O[C@H]2[C@H]1CC/C(COC(=O)CCCc1c[nH]c3ccccc13)=C\\CC[C@@]1(C)O[C@@H]21", "%", 89.8],
  ["COc1ccc(OC)c(/C=C/[C@H]2O[C@@H](C)[C@H](O)[C@@H]2O)c1", "%", 106],
  ["CC1=CC[C@@H]2CC[C@]3(C)[C@H](CC[C@@H]4[C@@]5(C)CCCNC(C)(C)[C@@H]5CC[C@]43C)[C@H]2[C@@H]1C", "%", 105]
]}
